EMax, OVCAR 5 cells (cAMP) for assorted binders
# Tested system: T1, RXFP1 receptor (UniProt Q9HBX9 1-757, limits assumed)
# T1 sequence (looked up): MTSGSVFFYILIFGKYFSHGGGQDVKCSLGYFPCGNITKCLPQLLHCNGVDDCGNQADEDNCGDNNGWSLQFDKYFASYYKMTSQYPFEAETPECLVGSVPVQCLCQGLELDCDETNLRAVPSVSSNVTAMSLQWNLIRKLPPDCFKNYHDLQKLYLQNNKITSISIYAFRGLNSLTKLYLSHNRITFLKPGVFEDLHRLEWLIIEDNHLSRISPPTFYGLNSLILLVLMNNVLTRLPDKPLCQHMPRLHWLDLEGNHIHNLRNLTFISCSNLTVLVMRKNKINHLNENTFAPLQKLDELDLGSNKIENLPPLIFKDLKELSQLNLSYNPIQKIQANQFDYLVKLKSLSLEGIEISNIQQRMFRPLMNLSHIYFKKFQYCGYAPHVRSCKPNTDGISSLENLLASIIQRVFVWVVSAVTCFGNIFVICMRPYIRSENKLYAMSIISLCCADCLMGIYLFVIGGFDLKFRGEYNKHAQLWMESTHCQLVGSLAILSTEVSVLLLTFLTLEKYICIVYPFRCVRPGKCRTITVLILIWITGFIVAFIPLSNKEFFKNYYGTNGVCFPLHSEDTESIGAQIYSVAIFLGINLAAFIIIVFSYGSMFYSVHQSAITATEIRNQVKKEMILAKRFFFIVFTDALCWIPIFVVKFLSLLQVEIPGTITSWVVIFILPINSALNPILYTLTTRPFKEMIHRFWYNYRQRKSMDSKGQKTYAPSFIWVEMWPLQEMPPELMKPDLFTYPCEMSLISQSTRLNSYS
# Protocol text: cell-based or functional assay
*1 amine or outer side, *2 acyl side, *3 side chain or, on linkers, in order; H or OH if unused. Primed or numbered codes have the meaning given here. Side-chain parts run from the residue outwards. [ ]: non-standard residue; d: D form. The star is where a group is joined. γGlu = O=C(O)[C@H](CCC(=O)[*:2])N[*:1]; 1Nal = N[C@@H](Cc1cccc2ccccc12)C(=O)O; Stearoyl = CCCCCCCCCCCCCCCCCC(=O)*; Nle = CCCC[C@H](N)C(=O)O; PEG2″ = not defined here; Aib = CC(C)(N)C(=O)O
Metric name: EMax, OVCAR 5 cells (cAMP) (%)

>>> reading("Ac-LEGREKVR[Aib]QI[Aib][Aib]EG[Nle]STWS[Aib]RKKK([PEG2″-PEG2″-γGlu-γGlu-γGlu-Stearoyl])-NH2 [peptide of SEQ ID NO: 69]")
87
>>> reading("Ac-LEGREKVRAK(Ac)I[Aib][Aib]EG[Nle]ST[1Nal]S[Aib]RKKK([PEG2″-PEG2″-γGlu-γGlu-γGlu-PEG2″-γGlu-Stearoyl])-NH2 [peptide of SEQ ID NO: 103]")
79
